test system: Plasmodium falciparum; test: In vitro antimalarial activity against chloroquine-sensitive Plasmodium falciparum NF54 in C4beta-stannylmethyl trioxanes; type: functional, organism-based; conditions: Plasmodium falciparum
pIC50: −log10 of the molar value.
Mark n for pIC50 values under 7, and y for everything at or above.

compound: CO[C@H]1O[C@@]2(C)OOC13[C@H](CCO)CCC[C@@H]3CC2Cc1ccccc1 (some centres not stated)
experimental-target: Plasmodium falciparum
assigned-class: y

Is pIC50 at least 7? Consider CO[C@H]1O[C@@]2(C)OOC13[C@H](CCO)CCC[C@@H]3CC2C[Si](C)(C)C (some centres not stated)
n

Is pIC50 at least 7? Consider CO[C@H]1O[C@@]2(C)OOC13CCCC[C@@H]3CC2c1ccccc1 (some centres not stated)
n

Is pIC50 at least 7? Consider CO[C@H]1O[C@@]2(C)OOC13CCCC[C@@H]3CC2Cc1ccc(CO)cc1 (some centres not stated)
n

Is pIC50 at least 7? Consider CO[C@H]1O[C@@]2(C)OOC13CCCC[C@@H]3CC2Cc1ccccc1 (some centres not stated)
n

Is pIC50 at least 7? Consider CO[C@H]1O[C@@]2(C)OOC13CCCC[C@@H]3CC2CO (some centres not stated)
n

Is pIC50 at least 7? Consider CO[C@H]1O[C@@]2(C)OOC13[C@H](CCO)CCC[C@@H]3CC2C (some centres not stated)
y
